# Read-out: Pyruvate Dehydrogenase Kinase 4 (PDK4), PDK4 (gene 5166)
# measurement notes: LTEA_HepaRG_PDK4: Life Technologies and Expression Analysis (LTEA) Assay for Pyruvate Dehydrogenase Kinase 4 (PDK4) using HepaRG (AID 2283525)
# reported conditions: mRNA level, 48 h; actives raise or lower the signal
Active and inactive are the calls of the source. The calls were made as follows: active = hit-call score of the fitted dose curve at least 0.9, where 1 is the maximum; inactive = score below 0.9.
experimental endpoint: AC50

Past entries and their recorded results:
COP(=S)(OC)SCN1C(=O)c2ccccc2C1=O : inactive
O=[N+]([O-])C(Br)(CO)CO : inactive
Clc1ccc(Cl)c(Cl)c1 : inactive
CCCCCOC(=O)c1ccccc1C(=O)OCCCCC : inactive
ClC1=C(Cl)[C@]2(Cl)[C@H]3[C@H]([C@@H]4C=C[C@H]3C4)[C@@]1(Cl)C2(Cl)Cl : inactive
CN(C)C(=O)Nc1ccc(Cl)cc1 : inactive
CCOC(=O)[C@]1(c2ccccc2)Oc2ccccc2[C@@H]1N : 71.2 µM (active)
CC(C)N(Cc1ccccc1)C(=O)C(C)(C)C : inactive

Value lookup for AC50; key = [O-][Cl+]O
inactive

Same question for O=C(O)C1C2CCC(O2)C1C(=O)O (stereo not drawn) please.
inactive

What do you get for CCN(CC)CCO ?
inactive

What about CN(C)[C@@H]1C(=O)C(C(N)=O)=C(O)[C@@]2(O)C(=O)C3=C(O)c4c(O)cccc4[C@@](C)(O)[C@H]3C[C@@H]12 ?
inactive

Now the molecule CCCSC(=O)N(CCC)CCC
inactive

One more molecule: CC(O)CCO (stereo not drawn)
inactive

Proceed to Cc1cccc(N)c1N
inactive

Field entry: Cn1cc(-c2ccccc2)c(=O)c(-c2cccc(C(F)(F)F)c2)c1
50 µM (active)

Please give the result for Oc1ccc2ccc3cccc4ccc1c2c34 too.
inactive

Repeat for the following molecule: [Cl-].[Cl-].[Hg+2]
inactive

Also CC(C)(C)C(O)(CCc1ccc(Cl)cc1)Cn1cncn1 (stereo not drawn) , if possible.
80.9 µM (active)

Repeat with c1ccc2c(c1)oc1ccccc12
inactive

Repeat for the following molecule: CCNS(=O)(=O)C(F)(F)C(F)(F)C(F)(F)C(F)(F)C(F)(F)C(F)(F)C(F)(F)C(F)(F)F
30.4 µM (active)

Okay, and ClC1=C(Cl)C2(Cl)C3C(Cl)C=CC3C1(Cl)C2(Cl)Cl (stereo not drawn) ?
50 µM (active)

Similarly, CCOc1cccc(C2(N3CCN(c4ccccc4)CC3)CCC(C)CC2)c1 (stereo not drawn) ?
inactive

Next molecule up: CN(C)c1ccccc1
inactive

====

# Read-out: Interleukin 6 Receptor (IL6R), IL6R (gene 3570)
# measurement notes: LTEA_HepaRG_IL6R: Life Technologies and Expression Analysis (LTEA) Assay for Interleukin 6 Receptor (IL6R) using HepaRG (AID 2283510)
# reported conditions: mRNA level, 48 h; actives raise or lower the signal
# Experimental: LTEA_HepaRG is a cell based, multiplexed-readout assay that uses HepaRG, a human liver cell line, with measurements taken at 48 hours after chemical dosing on a 96-well plate.LTEA_HepaRG_IL6R is one of 102 assay component(s) measured in the LTEA HepaRG cell culture assay. It is a marker of Inflammation.Data from the assay component LTEA_HepaRG_IL6R was analyzed into 1 endpoint. […]
The source made the active and inactive calls. The calls were made as follows: active = hit-call score of the fitted dose curve at least 0.9, where 1 is the maximum; inactive = score below 0.9.
The reply should be one of these categories: t = active, f = inactive

Tell me the assay call for CC(C)(OOC(C)(C)c1ccccc1)c1ccccc1 please.
f

// next record Cc1ccc(N)c(N)c1
f

Next up: O=C(Nc1ccccc1)c1ccccc1I
f

Further, for CC(O)CCO (stereo not given) ?
f

Next: [O-][Cl+]O
f

Continue with COc1cc(C=O)cc2c1[C@H](COC(N)=O)[C@]1(OC(C)=O)ON2C[C@H]2[C@@H]1N2C(C)=O
t

And then C[N+](C)(C)CC1CO1 (stereo not given) , what is it?
f

Another: CN(C)C(=O)Nc1ccc(Cl)cc1
f

Now this one: O=Cc1ccco1
f

Also C[C@]12C=CC3=C4CCC(=O)C=C4CC[C@H]3[C@@H]1CC[C@@H]2O ?
f

# iterate: Cc1ccc(N)cc1
f

Query O=P(OCCCl)(OCCCl)OCCCl next
f

Try this molecule next: Clc1ccc(C(c2ccc(Cl)cc2)C(Cl)Cl)cc1
f

What about CCC[CH2][Sn]([Cl])([CH2]CCC)[CH2]CCC ?
t

Clc1ccc(Cl)c(Cl)c1 , same question.
f
